# Target: oxytocin receptors (rat uterus membranes) (Rattus norvegicus, UniProt P70536)
# Construct: The resulting pellet containing the oxytocin receptors is resuspended; from tissue; host or cells: uterus membranes of DES-treated female Sprague-Dawley rats
# Sequence (P70536 1-388): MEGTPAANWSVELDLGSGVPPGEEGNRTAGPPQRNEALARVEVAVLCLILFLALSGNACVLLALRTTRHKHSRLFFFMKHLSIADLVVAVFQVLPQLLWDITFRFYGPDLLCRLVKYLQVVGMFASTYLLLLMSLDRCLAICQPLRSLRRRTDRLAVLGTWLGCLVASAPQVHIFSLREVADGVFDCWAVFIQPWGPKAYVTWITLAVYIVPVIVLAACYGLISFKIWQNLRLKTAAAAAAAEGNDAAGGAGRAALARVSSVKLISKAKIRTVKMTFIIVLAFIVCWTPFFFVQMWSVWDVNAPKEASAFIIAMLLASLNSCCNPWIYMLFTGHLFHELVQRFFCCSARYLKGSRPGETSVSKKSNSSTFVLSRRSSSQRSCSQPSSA
# Assay Details: Oxytocin Receptor Binding
# Design: species or system female Sprague-Dawley rats
# Condition Details: first part of Table V
Endpoint Label: IC50 (µM)
// return numeric value only (unit: µM, not printed)

# Molecule, Target, IC50 / µM
records = [
    ("O=C(Nc1ccc(C(=O)N2Cc3ccccc3Cc3ccccc32)cc1)c1cccc(Cl)c1Cl [Example 253]", "oxytocin receptors (rat uterus membranes) (Rattus norvegicus, UniProt P70536)", 3.1),
    ("Cc1c(F)cccc1C(=O)Nc1ccc(C(=O)N2Cc3ccccc3Cc3ccccc32)cc1Cl [Example 262]", "oxytocin receptors (rat uterus membranes) (Rattus norvegicus, UniProt P70536)", 6.2),
    ("COc1cc(C(=O)N2Cc3ccccc3Cc3ccccc32)ccc1NC(=O)c1ccc(Cl)cc1Cl [Example 263]", "oxytocin receptors (rat uterus membranes) (Rattus norvegicus, UniProt P70536)", 0.26),
]

Param item: Cc1cccc(C(=O)Nc2ccc(C(=O)N3Cc4ccccc4Cc4ccccc43)cc2)c1C [Example 11] ; param system: oxytocin receptors (rat uterus membranes) (Rattus norvegicus, UniProt P70536); output IC50: 4.4

Value (IC50, oxytocin receptors (rat uterus membranes) (Rattus norvegicus, UniProt P70536)) for record Cc1ccccc1C(=O)Nc1ccc(C(=O)N2CCc3cn(C)nc3-c3ccccc32)cc1 [Example 379] = 0.81

Case Cc1c(F)cccc1C(=O)Nc1ccc(C(=O)N2Cc3ccccc3Cc3ccccc32)cc1 [Example 254] , oxytocin receptors (rat uterus membranes) (Rattus norvegicus, UniProt P70536), IC50 recorded as 1.9

Readout IC50 for COc1cc(C(=O)N2Cc3ccccc3Cc3ccccc32)ccc1NC(=O)c1ccccc1C [Example 257] , test system oxytocin receptors (rat uterus membranes) (Rattus norvegicus, UniProt P70536), was 0.189

Case Cc1ccccc1C(=O)N(CN(C)C)c1ccc(C(=O)N2Cc3ccccc3Cc3ccccc32)cc1 [Example 267] , oxytocin receptors (rat uterus membranes) (Rattus norvegicus, UniProt P70536), IC50 recorded as 1.1

IC50 value, target or system oxytocin receptors (rat uterus membranes) (Rattus norvegicus, UniProt P70536), for Cc1ccccc1C(=O)Nc1ccc(C(=O)N2Cc3ccccc3-c3ccccc32)cc1 [Example 5] : 2
